B1: tRNA (parent)
chain: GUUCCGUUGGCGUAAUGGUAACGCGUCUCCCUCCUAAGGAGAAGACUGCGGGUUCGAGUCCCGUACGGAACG

Variants of: B1
procedure.text: yeast fitness relative to wild type (ratio to wild type); higher = fitter; tRNA-Arg(CCU), competitive growth, 37 C, YPD
Variants at the floor of the assay were thinned out.
recorded.endpoint: yeast fitness

>>> recorded_value("GUUCCGUUGGCGUAAUGGUAACGUGCCUCCCUCCUAAGGAGAAGACUGCGGGUUCGAGUCCCGUACGGAUCG [C24U U26C A70U]")
0.678
>>> recorded_value("GUUCCGUUGGCGUAAUGGUAAAGCGUCUCCCUCCAAAGGAGAAGACUGCGGGUUCGAGUCCCGUACGGAACG [C22A U35A]")
0.603
>>> recorded_value("GUUCCGUUGGUGUAAUGGUAACGCGUCUCCCUCCUAAGGAGAAGACAGCGGGUUCGAGUCCCGUACGGAACG [C11U U47A]")
0.808
>>> recorded_value("GUUCCGUUGGCGUAAUGGGAACGCGUCUCCCUGCUAAGGAGAAGACAGCGGGUUCGAGUCCCGUACGGAACG [U19G C33G U47A]")
0.542
>>> recorded_value("GCUCCGUUGGCGUAAUGGUAACGCGUCUCCCUCCUAAGGAGAAGACUGCGGGUUCGAGUCUCGUGCGGAACG [U2C C61U A65G]")
0.711
>>> recorded_value("GUUCCGUUGGCGUAAUGGUAACGCGUCUACCUCCUAAGGAGAAGACUGCGGGUUCGAGUACCGUACGGAACG [C29A C60A]")
0.616
>>> recorded_value("GUUCCGUUAGCGUAAUGAUAACGGGUCUCCCUCCUAAGGAGAAGUCUGCGGGUUCGAGUCCCGUACGGAACG [G9A G18A C24G A45U]")
0.52
>>> recorded_value("GUUCCGUUGGCGGAAUGGUAACGCGUCUCCCUCCUAAGGAGAGGACUGCGGGAUCGAGUCCCGUACGGAACG [U13G A43G U53A]")
0.57
